Taken from patent US5712300A.

ASSAY_TARGET: Stromelysin (Homo sapiens)
Sequence (P08254 100-477): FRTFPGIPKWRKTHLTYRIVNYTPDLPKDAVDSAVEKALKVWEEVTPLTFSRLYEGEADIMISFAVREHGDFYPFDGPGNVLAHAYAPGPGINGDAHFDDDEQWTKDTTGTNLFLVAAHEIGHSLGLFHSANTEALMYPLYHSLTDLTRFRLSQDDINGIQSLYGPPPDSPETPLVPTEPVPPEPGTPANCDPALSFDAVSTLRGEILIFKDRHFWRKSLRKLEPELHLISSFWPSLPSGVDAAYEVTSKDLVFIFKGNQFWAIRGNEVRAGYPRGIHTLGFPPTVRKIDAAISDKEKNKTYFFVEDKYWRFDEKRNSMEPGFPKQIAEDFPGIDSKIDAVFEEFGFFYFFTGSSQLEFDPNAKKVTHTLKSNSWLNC
EXPERIMENT_NOTES: MMP inhibition by particle concentration fluorescence technique (stromelysin)
Format: biochemical
CONDITION_SET: pH 7.5; 15 min enzyme preincubation; substrate 1-3 h at room temperature; read-out: MMP Inhibition Constants, Stromelysin Ki
pKi: −log10 of the molar value.
QUANTITY_NAME: pKi

Observe how each entry below is paired with its result.
CC(C)C[C@@]1([C@@H](CCN2C(=O)c3ccc(C(F)(F)F)cc3C2=O)C(=O)NO)CCN(CCc2ccccc2)C1=O (relative stereo) : 5.98
CC(C)C[C@@]1(CC(=O)NO)CCN([C@@H](Cc2ccccc2)C(=O)NCCN2CCOCC2)C1=O : 6.15
CNC(=O)C(Cc1ccccc1)N1CCC(CC(=O)NO)(CC(C)C)C1=O (stereo not drawn) : 5.68
CC(C)C[C@@]1([C@@H](CCNS(=O)(=O)c2ccccc2)C(=O)NO)CCN(CCc2ccccc2)C1=O (relative stereo) : 6.97
CNC(=O)CN1CCC(CC(=O)NO)(CC(C)C)C1=O (stereo not drawn) : 4.78
CNC(=O)[C@H](Cc1ccccc1)N1CC[C@](CC(=O)NO)(CC2CCCC2)C1=O : 6.73

(A) CC(C)C[C@@]1([C@@H](CCN2C(=O)c3c(F)ccc(F)c3C2=O)C(=O)NO)CCN(CCc2ccccc2)C1=O (relative stereo)
(B) CC(C)CC1(CC(=O)NO)CCN(Cc2ccccc2)C1=O (stereo not drawn)
Data request: Smaller pKi value, A vs B ? Indicate which entry you chose by stating its label.
Data returned: B
(B: 5.38, A: 6.48)

(P) CNC(=O)CN1CC[C@@](CC(C)C)([C@@H](CCN2C(=O)c3ccccc3C2=O)C(=O)NO)C1=O (relative stereo)
(Q) CC(C)C[C@@]1(CC(=O)NO)CCN([C@@H](Cc2ccccc2)C(=O)NC2CCNCC2)C1=O
(R) CNC(=O)[C@H](C1CCCCC1)N1CC[C@](CC(=O)NO)(CC(C)C)C1=O
(S) CC(C)C[C@@]1(CC(=O)NO)CCN([C@@H](Cc2ccccc2)C(=O)N2CCOCC2)C1=O
(T) CC(C)C[C@@]1([C@@H](CCNC(=O)c2cccc(F)c2)C(=O)NO)CCN(CCc2ccccc2)C1=O (relative stereo)
Data request: Sort low-to-high on pKi, please. I would appreciate it if you listed the labels in the requested order.
Data returned: Q, S, P, R, T
(Q: 5.40, S: 5.72, P: 6.15, R: 6.55, T: 6.84)

(I) CNC(=O)[C@H](Cc1ccccc1)N1CC[C@@](CCC(C)C)(CC(=O)NO)C1=O
(II) CC(C)C[C@@]1([C@@H](CCN2C(=O)c3cc(Cl)c(Cl)cc3C2=O)C(=O)NO)CCN(CCc2ccccc2)C1=O (relative stereo)
Data request: Between I and II , whose recorded pKi is greater? Indicate which entry you chose by stating its label.
Data returned: II
